- subjectOfTest: KAT2A (Homo sapiens, UniProt Q92830)
- Sequence (Q92830 whole entry): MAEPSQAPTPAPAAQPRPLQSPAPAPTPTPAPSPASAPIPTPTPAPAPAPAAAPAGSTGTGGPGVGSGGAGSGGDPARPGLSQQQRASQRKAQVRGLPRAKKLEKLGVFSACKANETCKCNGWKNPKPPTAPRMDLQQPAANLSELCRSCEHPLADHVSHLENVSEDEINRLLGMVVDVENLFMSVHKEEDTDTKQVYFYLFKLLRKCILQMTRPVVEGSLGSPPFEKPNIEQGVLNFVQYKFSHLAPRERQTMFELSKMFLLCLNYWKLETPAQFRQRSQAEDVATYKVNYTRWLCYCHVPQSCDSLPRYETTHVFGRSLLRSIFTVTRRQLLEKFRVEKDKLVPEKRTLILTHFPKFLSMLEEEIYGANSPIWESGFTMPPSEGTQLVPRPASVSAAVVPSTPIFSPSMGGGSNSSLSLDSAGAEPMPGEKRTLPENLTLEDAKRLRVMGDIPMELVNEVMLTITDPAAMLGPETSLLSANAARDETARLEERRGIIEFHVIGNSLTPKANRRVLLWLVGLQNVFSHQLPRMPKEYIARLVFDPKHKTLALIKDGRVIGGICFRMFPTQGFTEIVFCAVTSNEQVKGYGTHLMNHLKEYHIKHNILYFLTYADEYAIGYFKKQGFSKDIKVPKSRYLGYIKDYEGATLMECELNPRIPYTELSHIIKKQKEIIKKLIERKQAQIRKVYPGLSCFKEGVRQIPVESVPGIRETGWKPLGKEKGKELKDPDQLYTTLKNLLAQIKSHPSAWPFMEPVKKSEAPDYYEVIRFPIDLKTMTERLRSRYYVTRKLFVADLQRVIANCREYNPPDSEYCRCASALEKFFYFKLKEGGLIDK
- assay: KAT2A degradation, Western Blot (Jess), NCI-H1048 cells
- Assay type: cell-based
- Parameters: degrader, Western blot (Jess)
- conditionDescription: NCI-H1048 cells, KAT2A, 24 h, Western Blot, vs DMSO; read-out: KAT2A NCI-H1048 DC50
Listed compounds paired with reported DC50

Here are 3 compounds together with their reported answers.
Cc1cc(N2CC(N3CCN(C(=O)c4ccc([C@H]5C[C@@H](Nc6cnn(C)c(=O)c6Cl)CN(C)C5)cc4)CC3)C2)ccc1C1CCC(=O)NC1=O (stereo partly drawn) :: < 1 nM
CN1C[C@H](Nc2cnn(C)c(=O)c2Br)C[C@H](c2ccc(CN3CCN(c4ccc5cc(C6CCC(=O)NC6=O)cnc5c4)CC3)cc2)C1 (stereo partly drawn) :: < 1 nM
Cc1c(N[C@@H]2C[C@H](c3ccc(C(=O)N4CCC5(CC4)CCN(c4ccc(C6CCC(=O)NC6=O)c(F)c4)CC5)cc3)CN(C)C2)cnn(C)c1=O (stereo partly drawn) [Compound 229] :: < 1 nM

Bench note, KAT2A (Homo sapiens, UniProt Q92830): entry CN1C[C@H](Nc2cnn(C)c(=O)c2Br)C[C@H](c2ccc(C(=O)N3CCC4(CC3)CCN(c3ccc(OC5CCC(=O)NC5=O)cc3)CC4)cc2)C1 (stereo partly drawn) , its DC50 = < 1 nM

Bench note, KAT2A (Homo sapiens, UniProt Q92830): entry CN1C[C@H](Nc2cnn(C)c(=O)c2Cl)C[C@H](c2ccc(C(=O)N3CCC4(CC3)CCN(c3ccc5c(C6CCC(=O)NC6=O)nn(C)c5c3)CC4)cc2)C1 (stereo partly drawn) , its DC50 = < 1 nM

Bench note, KAT2A (Homo sapiens, UniProt Q92830): entry CN1C[C@H](Nc2cnn(C)c(=O)c2Br)C[C@H](c2ccc(C(=O)N3CC(c4ccc(C5CCC(=O)NC5=O)cc4)C3)cc2)C1 (stereo partly drawn) , its DC50 = 1 to 30 nM

From: patent US20260306640A1
